Target: T1, HLA-DRB1*0401 (human)
T1 construct: human MHC class II allotype
Assay: competitive MHC class II binding assay

Binder	binding result
ANVKSEDGVVKAH [HDM37]	no binding
ETFDPMKVPDHSDK [HDM29A]	no binding
KDLDAFRHYDGRT [HDM12]	no binding
